meta.source: paper PMC3862411

Type: in vivo, lambs
stated.conditions: sheep, plasma, other: intraruminal, 0.2 mg/kg

mol.smiles	half-life, h
CO/N=C1\C[C@]2(C[C@@H]3C[C@@H](C/C=C(\C)C[C@@H](C)/C=C/C=C4\CO[C@@H]5[C@H](O)C(C)=C[C@@H](C(=O)O3)[C@]45O)O2)O[C@H](/C(C)=C/C(C)C)[C@H]1C	113

* * *

Format: in vivo, lambs
stated.conditions: sheep, plasma, other: intraruminal, 0.2 mg/kg

compound	unit.string	Tmax
CO/N=C1\C[C@]2(C[C@@H]3C[C@@H](C/C=C(\C)C[C@@H](C)/C=C/C=C4\CO[C@@H]5[C@H](O)C(C)=C[C@@H](C(=O)O3)[C@]45O)O2)O[C@H](/C(C)=C/C(C)C)[C@H]1C [MXD, moxidectin]	h	13
